- System: IKK-beta
- Construct: gene IKBKB
- condition_info: concentration: 1 μM, replicates: in singlicate; n = 1;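 also: KINOMEscan kinase panel screen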
readout_type: %Inh (%)
Field: numeric (%). Do not append units.

// solved cases for %Inh follow
Cc1cccc(-c2nc(-c3ccc(S(C)(=O)=O)cc3)sc2-c2ccncc2)c1 | 1
Cc1c(Cn2c(C)nn3c(=O)cc(N4CCOC(C)C4)nc23)cccc1C(F)(F)F (centres unmarked) | 18
Cc1nnc(-c2ccc(C)c(-c3ccc(C(=O)Nc4ccc(NS(C)(=O)=O)cc4)cc3)c2)o1 | 0
Cc1c2ccc(N(C)c3ccnc(Nc4cccc(S(N)(=O)=O)c4)n3)cc2nn1Cc1ccccc1.Cl.Cl | 0
O=C(NCCNc1ccnc(Nc2ccc(F)cc2)n1)c1cc2ccccc2s1 | 0

Name the value of %Inh reported for COc1ccc(CNC(=O)NC2CCN(c3ccnc(Nc4ccc(OC)cc4)n3)C2)cc1 (centres unmarked) when tested on IKK-beta.
10

Name the value of %Inh reported for "N#Cc1ccc(-c2cc(-c3c[nH]nc3-c3ccccn3)ccn2)cc1" when tested on IKK-beta.
19

Name the value of %Inh reported for COc1cc(Nc2nccc(N3CCC(NC(=O)c4cccc(NC(C)=O)c4)C3)n2)cc(OC)c1OC (centres unmarked) when tested on IKK-beta.
8

----------
- System: CDKL1
- condition_info: concentration: 1 μM, replicates: in singlicate; n = 1
readout_type: %Inh
Give me the value, and tack the unit on after it.

// solved cases for %Inh follow
COc1ccc(Nc2ncc(C#N)c(Nc3ccccc3C(N)=O)n2)cc1N1CCN(C)CC1.Cl | 89%
CCn1cnc2c(N)ncnc21 | 25%
Cn1cc(-c2ccc3c(c2)CCN3C(=O)Cc2ccccc2Cl)c2c(N)ncnc21 | 0%
Cc1c2ccc(N(C)c3ccnc(Nc4cccc(S(N)(=O)=O)c4)n3)cc2nn1Cc1ccccc1.Cl.Cl | 0%

Supply %Inh value. Item: "Cc1cccc(Cn2ccn3c(=O)cc(N4CCOCC4)nc23)c1"
20%

----------
- System: LATS2
- condition_info: concentration: 1 μM, replicates: in singlicate; n = 1
Each entry below carries its recorded %Inh.
Field: numeric (%). Do not append units.

NCC(NC(=O)c1cc(-c2cn[nH]c2)c(-c2ccnc3[nH]ccc23)s1)c1ccccc1.O=C(O)C(F)(F)F.O=C(O)C(F)(F)F (centres unmarked) | 91.1
CC(C)(C)n1cnc2c(N)ncnc21 | 0
O=C(NCCCN1CCOCC1)c1cccc(Nc2nccc(Nc3ccc(Oc4ccccc4)cc3)n2)c1 | 1
O=c1cc(N2CCOCC2)nc2n(Cc3cccc(C(F)(F)F)c3)ccn12 | 0

As a next step, examine the compound that follows.
Supply %Inh value. Item: "O=c1cc(N2CCOCC2)nc2n(Cc3cccc(F)c3)ccn12"
0

----------
- Test system: PKN2
- condition_info: concentration: 1 μM, replicates: in singlicate; n = 1
readout_type: %Inh (%)
Field: numeric (%). Do not append units.

// solved cases for %Inh follow
O=c1cc(N2CCOCC2)nc2n(Cc3cccc(F)c3)ccn12 | 0
CCc1nc(-c2cccc(C)c2)c(-c2ccnc(NCc3ccccc3)c2)s1 | 0
C[C@@H](Oc1cc(-n2cnc3ccc(NC(=O)NC(C)(C)C)cc32)sc1C(N)=O)c1ccccc1Cl | 0

As a next step, examine the compound that follows.
Supply %Inh value. Item: "COC(=O)Nc1nc2cc(Oc3ccc(NC(=O)Nc4cc(F)ccc4F)cc3)ccc2[nH]1.Cl"
0

----------
- System: FLT1
- condition_info: concentration: 1 μM, replicates: in singlicate; n = 1
Each entry below carries its recorded %Inh.
Field: numeric (%). Do not append units.

Name the value of %Inh reported for "COc1cc2c(cc1OC[C@@H](O)CO)ncc1c3ccc(C#N)cc3[nH]c21" when tested on FLT1.
0

Name the value of %Inh reported for COc1ccc(CNC(=O)NC2CCN(c3ccnc(Nc4ccc(OC)cc4)n3)C2)cc1 (stereo not drawn) [GSK1379727] when tested on FLT1.
5

----------
- Tested on: MARK2
- condition_info: concentration: 1 μM, replicates: in singlicate; n = 1
readout_type: %Inh (%)
Field: numeric (%). Do not append units.

CC(=O)Nc1ccc(COc2ccc(Nc3ccnc4cc(-c5ccccn5)ccc34)cc2)cc1.Cl | 0
Cc1ccc(NC(=O)c2ccnc(N3CCN(C)CC3)c2)cc1-c1ccc(C(=O)NCC2CC2)cc1 | 0
O=C(NCCCN1CCOCC1)c1cccc(Nc2nccc(Nc3ccc(Oc4ccccc4)cc3)n2)c1 | 19

Supply %Inh value. Item: "COCCNC(=O)c1ccc(-c2cc(C(=O)NC3CC3)cc(F)c2C)cc1"
0

Supply %Inh value. Item: "c1ccc(-c2n[nH]cc2-c2ccnc3ccccc23)nc1"
0

----------
- Tested on: MKNK2
- condition_info: concentration: 1 μM, replicates: in singlicate; n = 1
readout_type: %Inh (%)
Field: numeric (%). Do not append units.

C[C@@H](Oc1cc(-n2cnc3ccc(NC(=O)NC(C)(C)C)cc32)sc1C(N)=O)c1ccccc1Cl [GSK346294] | 0

Supply %Inh value. Item: NS(=O)(=O)c1cccc(-c2ccc3ncc(N4CCOCC4)nc3c2)c1 [GSK1535721]
0

Supply %Inh value. Item: Cl.Nc1ncnc2occ(-c3ccc(NC(=O)Nc4cc(C(F)(F)F)ccc4F)cc3)c12 [SB-707548]
98

Supply %Inh value. Item: "O=C1Cc2cc(Nc3nc(NCc4cccc(S(=O)(=O)C(F)(F)F)c4)ncc3C(F)(F)F)ccc2N1"
0

Supply %Inh value. Item: Fc1ccc(-c2nn3c(OCC(F)(F)F)cccc3c2-c2ccncc2)cc1 [GW514784]
0

Supply %Inh value. Item: O=C(NCCNc1ccnc(Nc2ccc(F)cc2)n1)Nc1ccccc1F [GSK1379880]
5

Supply %Inh value. Item: "CCc1nc(-c2cccc(C)c2)c(-c2ccnc(NCc3ccccc3)c2)s1"
0

Supply %Inh value. Item: "N#Cc1c(N2CCOCC2)sc(-c2ccn[nH]2)c1-c1ccc(Cl)cc1"
0

Supply %Inh value. Item: COc1ccc(COc2cc(-n3cnc4ccccc43)sc2C(N)=O)cc1 [GSK1024304]
1

Supply %Inh value. Item: COc1ccc(Nc2nccc(N3CCC(NC(=O)Nc4cc(C)ccc4C)C3)n2)cc1 (centres unmarked) [GSK1379741]
5

Supply %Inh value. Item: O=C1NC(=O)C(N2CCc3ccccc32)=C1c1cccc(Cl)c1 [SB-408010]
46

Supply %Inh value. Item: Fc1ccc(-c2ncn(CCCN3CCOCC3)c2-c2ccccn2)cc1 [SB-211742]
0

Supply %Inh value. Item: Cn1cc(-c2ccc3c(c2)CCN3C(=O)Cc2ccccc2Cl)c2c(N)ncnc21 [GSK2608885]
0

Supply %Inh value. Item: O=C(NCCNc1ccnc(Nc2ccc(F)cc2)n1)c1cc2ccccc2s1 [GSK1379874]
0

Supply %Inh value. Item: Cc1c(Cn2c(C)nn3c(=O)cc(N4CCOC(C)C4)nc23)cccc1C(F)(F)F (centres unmarked) [GSK2344444]
7

Supply %Inh value. Item: NS(=O)(=O)CCc1cccc(Nc2nccc(-c3c(-c4cccc(NC(=O)c5c(F)cccc5F)c4)nn4ccccc34)n2)c1 [GSK336735]
0

Supply %Inh value. Item: O=c1cc(N2CCOCC2)nc2n(Cc3cccc(Cl)c3Cl)c(C3CC3)nn12 [GSK2358994]
0

Supply %Inh value. Item: COC(=O)Nc1nc2cc(Oc3ccc(NC(=O)Nc4cc(F)ccc4F)cc3)ccc2[nH]1.Cl [GW701424]
12

Supply %Inh value. Item: Cc1c2ccc(N(C)c3ccnc(Nc4cccc(S(N)(=O)=O)c4)n3)cc2nn1Cc1ccccc1.Cl.Cl [GW787226]
0

Supply %Inh value. Item: [2H]C([2H])(c1cccc(C(F)(F)F)c1C)n1ccn2c(=O)nc(N3CCOCC3)cc12 [GSK2336394]
6

Supply %Inh value. Item: "Cc1cccc(-c2nc(-c3ccc(S(C)(=O)=O)cc3)sc2-c2ccncc2)c1"
13

Supply %Inh value. Item: O=c1cc(N2CCOCC2)nc2n(Cc3cccc4ccccc34)ccn12 [GSK2333389]
3

Supply %Inh value. Item: Cc1cn2c(=O)cc(N3CCOCC3)nc2n1Cc1cccc(Cl)c1Cl [GSK2334006]
10

Supply %Inh value. Item: "O=C(NOCC1CC1)c1ccc(F)c(F)c1Nc1ccc(I)cc1Cl"
0

Supply %Inh value. Item: "CCc1ccnc(/C=C/c2n[nH]c3cc(Sc4ccccc4C(=O)NC)ccc23)c1"
0

Supply %Inh value. Item: COCCNC(=O)c1ccc(-c2cc(C(=O)NC3CC3)cc(F)c2C)cc1 [GW868318]
25

----------
- Test system: ERK5
- Construct: gene MAPK7
- condition_info: concentration: 1 μM, replicates: in singlicate; n = 1
Each entry below carries its recorded %Inh.
Field: numeric (%). Do not append units.

// solved cases for %Inh follow
O=C(NCCNc1ccnc(Nc2ccc(F)cc2)n1)c1cc2ccccc2s1 [GSK1379874] | 0
CC(C)(C)n1cnc2c(N)ncnc21 [SKF-97359] | 4
C[C@@H](Oc1cc(-n2cnc3ccc(NC(=O)NC(C)(C)C)cc32)sc1C(N)=O)c1ccccc1Cl [GSK346294] | 0
CCCCCc1nc2c(N)ncnc2n1CCCCC [SKF-97255] | 0

As a next step, examine the compound that follows.
Supply %Inh value. Item: "Cc1cccc(-c2nc(-c3ccc(S(C)(=O)=O)cc3)sc2-c2ccncc2)c1"
2
